- TARGET_UNDER_TEST: hEP4 (Homo sapiens, UniProt P35408)
- Construct: expressed in transfected cells; host or cells: HEK-293-EBNA
- Sequence (P35408 whole entry): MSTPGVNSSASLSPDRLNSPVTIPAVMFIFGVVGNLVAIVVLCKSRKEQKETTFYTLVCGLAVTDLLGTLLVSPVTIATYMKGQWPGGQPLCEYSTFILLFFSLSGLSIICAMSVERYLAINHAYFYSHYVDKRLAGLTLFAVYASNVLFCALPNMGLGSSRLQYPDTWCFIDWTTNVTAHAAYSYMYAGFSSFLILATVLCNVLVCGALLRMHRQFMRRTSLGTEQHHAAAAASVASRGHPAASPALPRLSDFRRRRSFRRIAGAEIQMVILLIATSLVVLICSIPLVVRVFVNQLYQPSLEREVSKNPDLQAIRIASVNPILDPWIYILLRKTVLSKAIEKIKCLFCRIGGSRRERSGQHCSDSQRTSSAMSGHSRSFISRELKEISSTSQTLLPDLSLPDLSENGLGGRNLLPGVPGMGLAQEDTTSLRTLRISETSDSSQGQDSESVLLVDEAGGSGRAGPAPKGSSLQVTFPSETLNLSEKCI
- METHOD: Functional data, human recombinant EP4 receptor stable transfectants
- Format: cell-based
- TEST_SETTINGS: HEK-293-EBNA stable transfectants
READOUT_KIND: EC50 (nM)

> print(dat)
                                   molecule  readout.kind  endpoint.unit  reported.value
1  COC(=O)COCCCCN1C(=O)CCC[C@@H]1/C=C/C(O)Cc1ccccc1 (some centres unmarked)          EC50             nM            1100
2  O=C(O)COC/C=C\CN1C(=O)CCC[C@@H]1/C=C/C(=O)Cc1ccccc1          EC50             nM            2560
3  O=C(O)COCCCCN1C(=O)CCC[C@@H]1CCC(=O)Cc1ccccc1          EC50             nM            1970
4  COC(=O)COCCCCN1C(=O)CCC[C@@H]1CCC(=O)Cc1ccccc1          EC50             nM            7540

[A] O=C(O)COCCCCN1C(=O)CCC[C@@H]1/C=C/C(=O)Cc1ccccc1
[B] O=C(O)COCCCCN1C(=O)CCC[C@@H]1/C=C/C(O)Cc1ccccc1 (some centres unmarked)
Inquiry: When A and B are compared, which has the higher number for EC50? Bench note: the answer is the label of the chosen record.
Reply text: A

Ref: patent US6977260B2
